STUDY_SYSTEM: human Cereblon WT GST-tagged protein (Homo sapiens, UniProt Q96SW2)
Construct: purchased CISBIO 64BDCRBNPEH
Sequence (Q96SW2 whole entry): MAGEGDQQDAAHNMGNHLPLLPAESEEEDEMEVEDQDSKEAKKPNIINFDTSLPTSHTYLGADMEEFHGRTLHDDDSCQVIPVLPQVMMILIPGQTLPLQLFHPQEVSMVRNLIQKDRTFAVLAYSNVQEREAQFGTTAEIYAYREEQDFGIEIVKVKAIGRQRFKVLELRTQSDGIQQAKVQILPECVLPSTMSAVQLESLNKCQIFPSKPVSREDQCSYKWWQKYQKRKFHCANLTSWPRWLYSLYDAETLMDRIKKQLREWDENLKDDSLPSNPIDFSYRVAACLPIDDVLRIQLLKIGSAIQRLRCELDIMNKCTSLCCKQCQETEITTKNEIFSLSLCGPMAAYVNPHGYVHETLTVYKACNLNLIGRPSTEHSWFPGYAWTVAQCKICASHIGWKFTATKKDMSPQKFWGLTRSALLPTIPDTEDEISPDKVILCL
EXPERIMENT_SUMMARY: CRBN-binding affinity, HTRF (CEREBLON BINDING kit)
CONDITION_SUMMARY: read-out: Inhibition Rate at 2 µM (%)
MEASURE: inhibition at 2 µM

Tell us which inhibition at 2 µM value is on record for O=C1CCC(N2Cc3c(CN4CCN(c5ccc(Cl)nn5)CC4)cccc3C2=S)C(=O)N1 (centres unmarked) [GT-08811]
80 to 100%

Tell us which inhibition at 2 µM value is on record for O=C1CCC(N2Cc3cc(CN4CCN(c5cc(F)ccc5F)CC4)ccc3C2=S)C(=O)N1 (centres unmarked) [GT-08625]
80 to 100%

Tell us which inhibition at 2 µM value is on record for O=C1CCC(N2Cc3cc(CN4CCN(c5nc(N6CCNCC6)c6sccc6n5)CC4)ccc3C2=S)C(=O)N1 (centres unmarked) [GT-09365]
80 to 100%

Tell us which inhibition at 2 µM value is on record for O=C1CCC(N2Cc3cc(CN4CCC(c5cccc6c(F)cccc56)CC4)ccc3C2=S)C(=O)N1 (centres unmarked) [GT-09275]
60 to 80%

Tell us which inhibition at 2 µM value is on record for O=C1CCC(N2Cc3c(CN4CCN(c5nccc(Cl)c5Br)CC4)cccc3C2=S)C(=O)N1 (centres unmarked) [GT-08804]
60 to 80%

Tell us which inhibition at 2 µM value is on record for O=C1CCC(N2Cc3cc(CN4CCC(n5c(=O)[nH]c6cc(F)ccc65)CC4)ccc3C2=S)C(=O)N1 (centres unmarked) [GT-09263]
80 to 100%

Tell us which inhibition at 2 µM value is on record for O=C1CCC(N2Cc3c(CN4CCC(C5CCOc6cc(F)ccc65)CC4)cccc3C2=S)C(=O)N1 (centres unmarked) [GT-08854]
80 to 100%

Tell us which inhibition at 2 µM value is on record for O=C1CCC(N2Cc3c(CN4CC=C(c5c[nH]c6ncccc56)CC4)cccc3C2=S)C(=O)N1 (centres unmarked) [GT-08494]
80 to 100%

---

STUDY_SYSTEM: human Cereblon WT GST-tagged protein (Homo sapiens)
Construct: purchased CISBIO 64BDCRBNPEH
EXPERIMENT_SUMMARY: CRBN-binding affinity, HTRF (CEREBLON BINDING kit)
CONDITION_SUMMARY: read-out: Inhibition Rate at 0.5 µM (%)
MEASURE: inhibition at 0.5 µM

Please indicate recorded inhibition at 0.5 µM of O=C1CCC(N2Cc3c(CN4CCN(c5ccnc(Cl)c5F)CC4)cccc3C2=S)C(=O)N1 (centres unmarked) measured with human Cereblon WT GST-tagged protein (Homo sapiens).
60 to 80%

Please indicate recorded inhibition at 0.5 µM of Cc1cc(N2CCN(Cc3ccc4c(c3)CN(C3CCC(=O)NC3=O)C4=S)CC2)ccn1 (centres unmarked) measured with human Cereblon WT GST-tagged protein (Homo sapiens).
60 to 80%

Please indicate recorded inhibition at 0.5 µM of O=C1CCC(N2Cc3c(CN4C5CCC4CN(c4cccc(Cl)c4Cl)C5)cccc3C2=S)C(=O)N1 (centres unmarked) measured with human Cereblon WT GST-tagged protein (Homo sapiens).
30 to 40%

Please indicate recorded inhibition at 0.5 µM of O=C1CCC(N2Cc3cc(CN4CCN(c5ccsc5)CC4)ccc3C2=S)C(=O)N1 (centres unmarked) measured with human Cereblon WT GST-tagged protein (Homo sapiens).
80 to 100%

Please indicate recorded inhibition at 0.5 µM of O=C1CCC(N2Cc3c(CN4CCN(c5ncnc6ccsc56)CC4)cccc3C2=S)C(=O)N1 (centres unmarked) measured with human Cereblon WT GST-tagged protein (Homo sapiens).
60 to 80%

Please indicate recorded inhibition at 0.5 µM of O=C1CCC(N2Cc3c(CN4CCC(N5CCOc6cc(F)ccc65)CC4)cccc3C2=S)C(=O)N1 (centres unmarked) measured with human Cereblon WT GST-tagged protein (Homo sapiens).
40 to 53%

Please indicate recorded inhibition at 0.5 µM of O=C1CCC(N2Cc3c(CN4CCN(c5ccc(Cl)cc5)CC4)cccc3C2=S)C(=O)N1 (centres unmarked) measured with human Cereblon WT GST-tagged protein (Homo sapiens).
30 to 40%

Please indicate recorded inhibition at 0.5 µM of O=C1CCC(N2Cc3cc(CN4CCN(c5ncncn5)CC4)ccc3C2=S)C(=O)N1 (centres unmarked) measured with human Cereblon WT GST-tagged protein (Homo sapiens).
60 to 80%

Please indicate recorded inhibition at 0.5 µM of Cc1cccc(N2CCN(Cc3cccc4c3CN(C3CCC(=O)NC3=O)C4=S)CC2)c1 (centres unmarked) measured with human Cereblon WT GST-tagged protein (Homo sapiens).
40 to 53%

Please indicate recorded inhibition at 0.5 µM of O=C1CCC(N2Cc3c(CN4CC5CCC(C4)N5c4cccc(Cl)c4Cl)cccc3C2=S)C(=O)N1 (centres unmarked) measured with human Cereblon WT GST-tagged protein (Homo sapiens).
20 to 30%

Please indicate recorded inhibition at 0.5 µM of O=C1CCC(N2Cc3c(CN4CCN(c5c(F)c(F)nc(F)c5F)CC4)cccc3C2=S)C(=O)N1 (centres unmarked) measured with human Cereblon WT GST-tagged protein (Homo sapiens).
53 to 60%

Please indicate recorded inhibition at 0.5 µM of O=C1CCC(N2Cc3c(CN4CC=C(c5cncc(Cl)c5)CC4)cccc3C2=S)C(=O)N1 (centres unmarked) measured with human Cereblon WT GST-tagged protein (Homo sapiens).
60 to 80%

Please indicate recorded inhibition at 0.5 µM of O=C1CCC(N2Cc3c(CN4C[C@H]5C[C@@H]4CN5C(c4ccccc4)c4ccccc4)cccc3C2=S)C(=O)N1 (some centres unmarked) measured with human Cereblon WT GST-tagged protein (Homo sapiens).
40 to 53%

Please indicate recorded inhibition at 0.5 µM of O=C1CCC(N2Cc3c(CN4CCN(c5ncnc6sc(Br)cc56)CC4)cccc3C2=S)C(=O)N1 (centres unmarked) measured with human Cereblon WT GST-tagged protein (Homo sapiens).
60 to 80%

Please indicate recorded inhibition at 0.5 µM of O=C1CCC(N2Cc3c(CN4CCN(c5ncnc6sccc56)CC4)cccc3C2=S)C(=O)N1 (centres unmarked) measured with human Cereblon WT GST-tagged protein (Homo sapiens).
60 to 80%

Please indicate recorded inhibition at 0.5 µM of CC(C)c1cc2c(N3CCN(Cc4ccc5c(c4)CN(C4CCC(=O)NC4=O)C5=S)CC3)ncnc2s1 (centres unmarked) measured with human Cereblon WT GST-tagged protein (Homo sapiens).
40 to 53%

Please indicate recorded inhibition at 0.5 µM of O=C1CCC(N2Cc3c(CN4CCN(c5cc(F)cc(F)c5)CC4)cccc3C2=S)C(=O)N1 (centres unmarked) measured with human Cereblon WT GST-tagged protein (Homo sapiens).
60 to 80%

Please indicate recorded inhibition at 0.5 µM of O=C1CCC(N2Cc3c(CN4CCN(c5ncnc6sc7c(c56)CCC7)CC4)cccc3C2=S)C(=O)N1 (centres unmarked) measured with human Cereblon WT GST-tagged protein (Homo sapiens).
60 to 80%

Please indicate recorded inhibition at 0.5 µM of O=C1CCC(N2Cc3cc(CN4CCN(c5nc(N6CCNCC6)c6sccc6n5)CC4)ccc3C2=S)C(=O)N1 (centres unmarked) measured with human Cereblon WT GST-tagged protein (Homo sapiens).
60 to 80%

Please indicate recorded inhibition at 0.5 µM of O=C1CCC(N2Cc3cc(CN4CCC(c5ccon5)CC4)ccc3C2=S)C(=O)N1 (centres unmarked) measured with human Cereblon WT GST-tagged protein (Homo sapiens).
60 to 80%

Please indicate recorded inhibition at 0.5 µM of O=C1CCC(N2Cc3cc(CN4CCN(c5cnnc(Cl)c5Cl)CC4)ccc3C2=S)C(=O)N1 (centres unmarked) measured with human Cereblon WT GST-tagged protein (Homo sapiens).
80 to 100%

Please indicate recorded inhibition at 0.5 µM of O=C1CCC(N2Cc3cc(CN4CCN(c5ncccc5Cl)CC4)ccc3C2=S)C(=O)N1 (centres unmarked) measured with human Cereblon WT GST-tagged protein (Homo sapiens).
60 to 80%

Please indicate recorded inhibition at 0.5 µM of O=C1CCC(N2Cc3c(CN4CCC(c5ccon5)CC4)cccc3C2=S)C(=O)N1 (centres unmarked) measured with human Cereblon WT GST-tagged protein (Homo sapiens).
53 to 60%

Please indicate recorded inhibition at 0.5 µM of COc1cccc(N2CCN(Cc3ccc4c(c3)CN(C3CCC(=O)NC3=O)C4=S)CC2)c1 (centres unmarked) measured with human Cereblon WT GST-tagged protein (Homo sapiens).
53 to 60%

Please indicate recorded inhibition at 0.5 µM of O=C1CCC(N2Cc3c(CN4CCN(c5ccc(Cl)c(Cl)c5)CC4)cccc3C2=S)C(=O)N1 (centres unmarked) measured with human Cereblon WT GST-tagged protein (Homo sapiens).
40 to 53%

Please indicate recorded inhibition at 0.5 µM of O=C1CCC(N2Cc3c(CN4CCC(c5noc6ccccc56)CC4)cccc3C2=S)C(=O)N1 (centres unmarked) measured with human Cereblon WT GST-tagged protein (Homo sapiens).
60 to 80%

Please indicate recorded inhibition at 0.5 µM of O=C1CCC(N2Cc3cc(CN4CCN(c5c(Cl)cncc5Br)CC4)ccc3C2=S)C(=O)N1 (centres unmarked) measured with human Cereblon WT GST-tagged protein (Homo sapiens).
80 to 100%

Please indicate recorded inhibition at 0.5 µM of Cc1sc2ncnc(C3=CCN(Cc4ccc5c(c4)CN(C4CCC(=O)NC4=O)C5=S)CC3)c2c1C (centres unmarked) measured with human Cereblon WT GST-tagged protein (Homo sapiens).
53 to 60%

Please indicate recorded inhibition at 0.5 µM of O=C1CCC(N2Cc3c(CN4CCC(c5ccco5)CC4)cccc3C2=S)C(=O)N1 (centres unmarked) measured with human Cereblon WT GST-tagged protein (Homo sapiens).
30 to 40%

Please indicate recorded inhibition at 0.5 µM of O=C1CCC(N2Cc3c(CN4CCC(c5ccccc5C(F)(F)F)CC4)cccc3C2=S)C(=O)N1 (centres unmarked) measured with human Cereblon WT GST-tagged protein (Homo sapiens).
40 to 53%

Please indicate recorded inhibition at 0.5 µM of O=C1CCC(N2Cc3c(CN4CCN(c5c(Cl)cncc5Br)CC4)cccc3C2=S)C(=O)N1 (centres unmarked) measured with human Cereblon WT GST-tagged protein (Homo sapiens).
60 to 80%

Please indicate recorded inhibition at 0.5 µM of O=C1CCC(N2Cc3c(CN4CCC(c5n[nH]c6cc(F)ccc56)CC4)cccc3C2=S)C(=O)N1 (centres unmarked) measured with human Cereblon WT GST-tagged protein (Homo sapiens).
60 to 80%
